TARGET: HLA-A*02:01 (Homo sapiens, UniProt P04439, D140Y/D185E/D98H/E176V/E277Q/G131W/G231S/I119V/I121R/I166T/I218V/L300P/L318F/N151K/N90K/P208A/P217A/Q86G/Q94H/R138H/R169H/T345S)
ASSAY PROTOCOL: MHC binding assay: UV-ligand exchange with beta2m ELISA
CONDITION: MHC class I binding score, yield of UV-ligand exchange

- SUBSTANCE: "9 (FLFDGSANLV; listed as Homo sapiens) [compound 9]"
  Peptide exchange: "++ (20%-49% = ++)"
- SUBSTANCE: "54 (VLLSEIEVA; listed as Homo sapiens) [compound 54]"
  Peptide exchange: "++ (20%-49% = ++)"
- SUBSTANCE: "4 (SVDVSPPKV; listed as Homo sapiens) [compound 4]"
  Peptide exchange: "++ (20%-49% = ++)"
- SUBSTANCE: "27 (YLQGQRLDNV; listed as Homo sapiens) [compound 27]"
  Peptide exchange: "++ (20%-49% = ++)"
- SUBSTANCE: "43 (RLDQRVPQI; listed as Homo sapiens) [compound 43]"
  Peptide exchange: "++ (20%-49% = ++)"
- SUBSTANCE: "47 (KMDASLGNLFA; listed as Homo sapiens) [compound 47]"
  Peptide exchange: "++++ (>=75% = ++++)"
- SUBSTANCE: "50 (ALAAILTRL; listed as Homo sapiens) [compound 50]"
  Peptide exchange: "+++ (50%-75% = +++)"
- SUBSTANCE: "8 (IVDDLTINL; listed as Homo sapiens) [compound 8]"
  Peptide exchange: "++ (20%-49% = ++)"
- SUBSTANCE: "42 (KLVDKSTEL; listed as Homo sapiens) [compound 42]"
  Peptide exchange: "++ (20%-49% = ++)"
- SUBSTANCE: "1 (FLAQQESEI; listed as Homo sapiens) [compound 1]"
  Peptide exchange: "++ (20%-49% = ++)"
- SUBSTANCE: "34 (MLMPVHFLL; listed as Homo sapiens) [compound 34]"
  Peptide exchange: "++++ (>=75% = ++++)"
- SUBSTANCE: "5 (LLVDDSFLHTV; listed as Homo sapiens) [compound 5]"
  Peptide exchange: "+++ (50%-75% = +++)"

---

TARGET: HLA-A*02:01 (Homo sapiens, UniProt P04439, D140Y/D185E/D98H/E176V/E277Q/G131W/G231S/I119V/I121R/I166T/I218V/L300P/L318F/N151K/N90K/P208A/P217A/Q86G/Q94H/R138H/R169H/T345S)
ASSAY PROTOCOL: MHC binding assay: UV-ligand exchange with beta2m ELISA
CONDITION: MHC class I binding score, yield of UV-ligand exchange

- SUBSTANCE: "66 (ALLSGLREA; listed as Homo sapiens) [compound 66]"
  Peptide exchange: "+++ (50%-75% = +++)"
- SUBSTANCE: "30 (VVDEGPTGV; listed as Homo sapiens) [compound 30]"
  Peptide exchange: "++ (20%-49% = ++)"
- SUBSTANCE: "37 (GLLKKINSV; listed as Homo sapiens) [compound 37]"
  Peptide exchange: "++ (20%-49% = ++)"
- SUBSTANCE: "59 (KLFNLSKEDDV; listed as Homo sapiens) [compound 59]"
  Peptide exchange: "++ (20%-49% = ++)"
- SUBSTANCE: "49 (NLKGTFATL; listed as Homo sapiens) [compound 49]"
  Peptide exchange: "+ (<20% = +)"
- SUBSTANCE: "41 (FLLDGSEGV; listed as Homo sapiens) [compound 41]"
  Peptide exchange: "+++ (50%-75% = +++)"
- SUBSTANCE: "15 (SLANNVTSV; listed as Homo sapiens) [compound 15]"
  Peptide exchange: "++ (20%-49% = ++)"
- SUBSTANCE: "44 (VLLDKIKNLQV; listed as Homo sapiens) [compound 44]"
  Peptide exchange: "++ (20%-49% = ++)"
- SUBSTANCE: "58 (GLAAFKAFL; listed as Homo sapiens) [compound 58]"
  Peptide exchange: "+++ (50%-75% = +++)"
- SUBSTANCE: "2 (SLQEEHVAVA; listed as Homo sapiens) [compound 2]"
  Peptide exchange: "++ (20%-49% = ++)"
- SUBSTANCE: "64 (FLVSNMLLAEA; listed as Homo sapiens) [compound 64]"
  Peptide exchange: "+++ (50%-75% = +++)"
- SUBSTANCE: "6 (VLISLKQAPLV; listed as Homo sapiens) [compound 6]"
  Peptide exchange: "++ (20%-49% = ++)"
- SUBSTANCE: "25 (SLKEEVGEEAI; listed as Homo sapiens) [compound 25]"
  Peptide exchange: "++ (20%-49% = ++)"
- SUBSTANCE: "10 (FLVDGSSAL; listed as Homo sapiens) [compound 10]"
  Peptide exchange: "++ (20%-49% = ++)"
- SUBSTANCE: "31 (SLAAAAGKQEL; listed as Homo sapiens) [compound 31]"
  Peptide exchange: "++ (20%-49% = ++)"
- SUBSTANCE: "39 (TLLSNLEEA; listed as Homo sapiens) [compound 39]"
  Peptide exchange: "++ (20%-49% = ++)"
- SUBSTANCE: "32 (SLAAAAGKQELA; listed as Homo sapiens) [compound 32]"
  Peptide exchange: "+ (<20% = +)"
- SUBSTANCE: "33 (SLDSRLELA; listed as Homo sapiens) [compound 33]"
  Peptide exchange: "++ (20%-49% = ++)"
- SUBSTANCE: "29 (FLQEYLDAI; listed as Homo sapiens) [compound 29]"
  Peptide exchange: "+++ (50%-75% = +++)"
- SUBSTANCE: "16 (APVNVTTEVKSV; listed as Homo sapiens) [compound 16]"
  Peptide exchange: "++ (20%-49% = ++)"

---

System: CD8+ T cells
ASSAY PROTOCOL: In vitro T-cell priming assay with aAPCs loaded with peptide/MHC complexes and anti-CD28 antibody, multimer readout
Format: cell-based, human
CONDITION: in vitro immunogenicity, healthy HLA-A*02 donors
ASSAY METRIC: Wells positive [%]

- SUBSTANCE: "3 (ALLTFMEQV; listed as Homo sapiens) [compound 3]"
  OBSERVED VALUE: "++ (20%-49% = ++)"
- SUBSTANCE: "23 (SLSAFTLFL; listed as Homo sapiens) [compound 23]"
  OBSERVED VALUE: "++ (20%-49% = ++)"
- SUBSTANCE: "34 (MLMPVHFLL; listed as Homo sapiens) [compound 34]"
  OBSERVED VALUE: "+ (<20% = +)"
- SUBSTANCE: "21 (HLMDQPLSV; listed as Homo sapiens) [compound 21]"
  OBSERVED VALUE: "+ (<20% = +)"
- SUBSTANCE: "37 (GLLKKINSV; listed as Homo sapiens) [compound 37]"
  OBSERVED VALUE: "+ (<20% = +)"

---

TARGET: HLA-A*02:01 (Homo sapiens, UniProt P04439, D140Y/D185E/D98H/E176V/E277Q/G131W/G231S/I119V/I121R/I166T/I218V/L300P/L318F/N151K/N90K/P208A/P217A/Q86G/Q94H/R138H/R169H/T345S)
ASSAY PROTOCOL: MHC binding assay: UV-ligand exchange with beta2m ELISA
CONDITION: MHC class I binding score, yield of UV-ligand exchange

- SUBSTANCE: "46 (TFAPVNVTTEVKSV; listed as Homo sapiens) [compound 46]"
  Peptide exchange: "++ (20%-49% = ++)"
- SUBSTANCE: "38 (NLVEKTPALV; listed as Homo sapiens) [compound 38]"
  Peptide exchange: "+++ (50%-75% = +++)"
- SUBSTANCE: "24 (GLLEELVTV; listed as Homo sapiens) [compound 24]"
  Peptide exchange: "++ (20%-49% = ++)"
- SUBSTANCE: "22 (TLDGAAVNQV; listed as Homo sapiens) [compound 22]"
  Peptide exchange: "++ (20%-49% = ++)"
- SUBSTANCE: "56 (GLLDYATGAIGSV; listed as Homo sapiens) [compound 56]"
  Peptide exchange: "+++ (50%-75% = +++)"
- SUBSTANCE: "26 (SLKEEVGEEAIV; listed as Homo sapiens) [compound 26]"
  Peptide exchange: "++ (20%-49% = ++)"
- SUBSTANCE: "18 (SLLDDELMSL; listed as Homo sapiens) [compound 18]"
  Peptide exchange: "++ (20%-49% = ++)"
- SUBSTANCE: "60 (YLEEDVYQL; listed as Homo sapiens) [compound 60]"
  Peptide exchange: "++ (20%-49% = ++)"
- SUBSTANCE: "52 (RMVEEIGVEL; listed as Homo sapiens) [compound 52]"
  Peptide exchange: "++ (20%-49% = ++)"
- SUBSTANCE: "7 (AQQESEIAGI; listed as Homo sapiens) [compound 7]"
  Peptide exchange: "++ (20%-49% = ++)"
- SUBSTANCE: "21 (HLMDQPLSV; listed as Homo sapiens) [compound 21]"
  Peptide exchange: "++ (20%-49% = ++)"
- SUBSTANCE: "65 (YLYDSETKNA; listed as Homo sapiens) [compound 65]"
  Peptide exchange: "++ (20%-49% = ++)"
- SUBSTANCE: "48 (ALTQTGGPHV; listed as Homo sapiens) [compound 48]"
  Peptide exchange: "++ (20%-49% = ++)"
- SUBSTANCE: "12 (FVSEIVDTV; listed as Homo sapiens) [compound 12]"
  Peptide exchange: "+++ (50%-75% = +++)"
- SUBSTANCE: "11 (FLYKIIDEL; listed as Homo sapiens) [compound 11]"
  Peptide exchange: "+++ (50%-75% = +++)"
- SUBSTANCE: "28 (YLQGQRLDNVV; listed as Homo sapiens) [compound 28]"
  Peptide exchange: "++ (20%-49% = ++)"
- SUBSTANCE: "3 (ALLTFMEQV; listed as Homo sapiens) [compound 3]"
  Peptide exchange: "+++ (50%-75% = +++)"
- SUBSTANCE: "51 (ALMLQGVDL; listed as Homo sapiens) [compound 51]"
  Peptide exchange: "++ (20%-49% = ++)"
